System: lysyl hydroxylase
Assay: Lysyl hydroxylase activity in extracts of treated human skin fibroblasts (Example 1, tritium-release assay)
Assay type: cell-based
Settings: 1 mM, 72 h, 1% ethanol; % of solvent-treated controls (Table I)
Entries and their Lysyl hydroxylase activity (%) values follow.
Write down the numeric answer in % and omit the unit.

# annotated cases, reported Lysyl hydroxylase activity (%) shown
| Compound | Lysyl hydroxylase activity (%) |
| --- | --- |
| CC1(C)CC(O)CC(C)(C)N1[O] | 130 |
| CC1(C)CCC=[N+]1[O-] [5,5-Dimethyl-1-pyrroline-N-oxide] | 103 |
| Nc1cc(N2CCCCC2)nc(N)[n+]1[O-] [Minoxidil] | 28 |

Moving on to the next compound.
Name the reported Lysyl hydroxylase activity (%) value associated with the compound [O-][n+]1cccc(O)c1 [3-Hydroxypyridine-N-oxide] 99

###

System: lysyl hydroxylase
Assay: Lysyl hydroxylase activity in extracts of treated human skin fibroblasts (Example 1, tritium-release assay)
Assay type: cell-based
Details: cultured fibroblasts, 72 h, Example 1
Assay Readout: effect on lysyl hydroxylase activity (in words)

| Molecule | Measured Result |
| --- | --- |
| CN1CCN(c2cc(N)[n+]([O-])c(N)n2)CC1 [Compound IX (Table II)] | inactive |
| Cc1cc(N2CCOCC2)nc(N)[n+]1[O-] [Compound VIII (Table II)] | inactive |
| Cc1cc(N2CCCC2)nc(N)[n+]1[O-] [Compound VII (Table II)] | inactive |

###

Tested on: lysyl hydroxylase
Assay: Lysyl hydroxylase activity in extracts of treated human skin fibroblasts (Example 1, tritium-release assay)
Type: cell-based
Conditions: 1 nM, 72 h, 1% ethanol; % of ethanol-treated controls (Table II)
Assay Readout: Lysyl hydroxylase activity (%)
Write down the numeric answer in % and omit the unit.

| Structure Smiles | Lysyl hydroxylase activity (%) |
| --- | --- |
| Cc1cc(N2CCOCC2)nc(N)[n+]1[O-] | 91 |
| Cc1cc(N2CCCC2)nc(N)[n+]1[O-] | 88 |

Name the reported Lysyl hydroxylase activity (%) value associated with the compound Cc1c([N+](=O)[O-])c(N2CCCCC2)nc(N)[n+]1[O-] 34
